Target: PAK6 (Homo sapiens, UniProt Q9NQU5)
Sequence (Q9NQU5 whole entry): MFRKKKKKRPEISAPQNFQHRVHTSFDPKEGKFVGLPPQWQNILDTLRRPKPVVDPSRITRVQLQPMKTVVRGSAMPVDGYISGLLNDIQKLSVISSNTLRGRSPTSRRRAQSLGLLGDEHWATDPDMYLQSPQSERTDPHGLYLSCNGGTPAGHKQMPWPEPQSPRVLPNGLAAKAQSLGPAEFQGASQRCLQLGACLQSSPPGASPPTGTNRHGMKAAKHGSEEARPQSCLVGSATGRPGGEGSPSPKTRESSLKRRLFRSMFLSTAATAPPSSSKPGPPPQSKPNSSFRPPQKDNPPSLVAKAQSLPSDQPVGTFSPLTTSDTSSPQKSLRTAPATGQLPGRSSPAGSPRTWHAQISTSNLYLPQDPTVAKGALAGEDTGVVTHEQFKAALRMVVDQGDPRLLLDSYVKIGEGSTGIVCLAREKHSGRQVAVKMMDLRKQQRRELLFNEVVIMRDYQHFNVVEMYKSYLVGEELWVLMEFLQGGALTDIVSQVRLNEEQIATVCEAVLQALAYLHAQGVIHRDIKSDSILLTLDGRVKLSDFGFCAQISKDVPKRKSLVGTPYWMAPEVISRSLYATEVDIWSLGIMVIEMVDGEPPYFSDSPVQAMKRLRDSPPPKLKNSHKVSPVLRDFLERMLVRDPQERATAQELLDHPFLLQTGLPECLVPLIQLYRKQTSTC
Assay: Kinase profiling (radiometric filter-binding)
Assay type: biochemical
Details: PAK6, 1 µM inhibitor; read-out: Residual activity, %
Square brackets hold non-standard residues; d marks the D form. Peptide text beside a SMILES is read from it. * marks the point of attachment. X3 = O=C(CCCCCNCc1nc2c(sc3cc(Br)cnc32)c(=O)[nH]1)*
Strictly below 90% in remaining activity at 1 µM: Satisfied. Otherwise: Not satisfied.

compound=N=C(N)NCCC[C@@H](NC(=O)CCCCCNC(=O)Cn1cnc2c(I)c(I)c(I)c(I)c21)C(=O)N[C@H](CCCNC(=N)N)C(=O)N[C@H](CCCNC(=N)N)C(=O)N[C@H](CCCNC(=N)N)C(=O)N[C@H](CCCNC(=N)N)C(=O)N[C@H](CCCNC(=N)N)C(=O)N[C@H](CCCCN)C(N)=O qualitative_label=Satisfied
compound=N=C(N)NCCC[C@@H](NC(=O)CNC(=O)[C@@H](CCCNC(=N)N)NC(=O)[C@@H](CCCNC(=N)N)NC(=O)CCCCCCCNCc1nc2c(sc3ccc(Br)cc32)c(=O)[nH]1)C(=O)N[C@H](CCCCN)C(N)=O qualitative_label="Not satisfied"
compound="N=C(N)NCCC[C@@H](NC(=O)CCCCCNCc1nc2c(sc3cc(Br)cnc32)c(=O)[nH]1)C(=O)N[C@H](CCCNC(=N)N)C(=O)N[C@H](CCCNC(=N)N)C(=O)N[C@H](CCCNC(=N)N)C(=O)N[C@H](CCCNC(=N)N)C(=O)N[C@H](CCCNC(=N)N)C(=O)N[C@H](CCCCN)C(N)=O [ARC-3126, BPTP-Ahx-(D-Arg)6-D-Lys-NH2] (X3-[dR][dR][dR][dR][dR][dR][dK]-NH2)" qualitative_label="Not satisfied"
compound=N=C(N)NCCC[C@@H](NC(=O)CNC(=O)[C@@H](CCCNC(=N)N)NC(=O)[C@@H](CCCNC(=N)N)NC(=O)Cn1cc(CNCc2nc3c(sc4ccc(Br)cc43)c(=O)[nH]2)nn1)C(=O)N[C@H](CCCCN)C(N)=O qualitative_label=Satisfied

Shift focus to the following entry.
For this compound, is remaining activity at 1 µM lower than 90%? N=C(N)NCCC[C@@H](NC(=O)CNC(=O)[C@@H](CCCNC(=N)N)NC(=O)[C@@H](CCCNC(=N)N)NC(=O)CCCCCCCNCc1nc2c(sc3cc(Br)cnc32)c(=O)[nH]1)C(=O)N[C@H](CCCCN)C(N)=O
Not satisfied

* * *

Biological target: CK1δ (Homo sapiens)
Sequence (P48730 whole entry): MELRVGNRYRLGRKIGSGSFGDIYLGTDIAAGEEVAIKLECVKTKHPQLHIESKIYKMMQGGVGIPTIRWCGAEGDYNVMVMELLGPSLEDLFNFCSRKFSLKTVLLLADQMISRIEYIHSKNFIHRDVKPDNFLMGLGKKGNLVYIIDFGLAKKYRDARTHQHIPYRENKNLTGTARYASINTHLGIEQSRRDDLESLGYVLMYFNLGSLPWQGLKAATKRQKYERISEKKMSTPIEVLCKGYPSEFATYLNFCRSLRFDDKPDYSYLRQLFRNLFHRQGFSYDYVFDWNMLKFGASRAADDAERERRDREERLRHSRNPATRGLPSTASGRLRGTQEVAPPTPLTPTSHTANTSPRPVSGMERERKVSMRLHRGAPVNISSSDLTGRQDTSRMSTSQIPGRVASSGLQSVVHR
Test: Kinase profiling (radiometric filter-binding)
Format: biochemical
Settings: 1 µM inhibitor, read-out: Residual activity, %
Square brackets hold non-standard residues; d marks the D form. Peptide text beside a SMILES is read from it. * marks the point of attachment. X3 = O=C(CCCCCNCc1nc2c(sc3cc(Br)cnc32)c(=O)[nH]1)*
remaining activity at 1 µM listing for selected molecules.
Field: numeric (%). Do not append units.

Illustrative cases are given below, each with its answer.
molecule="N=C(N)NCCC[C@@H](NC(=O)CCCCCNCc1nc2c(sc3cc(Br)cnc32)c(=O)[nH]1)C(=O)N[C@H](CCCNC(=N)N)C(=O)N[C@H](CCCNC(=N)N)C(=O)N[C@H](CCCNC(=N)N)C(=O)N[C@H](CCCNC(=N)N)C(=O)N[C@H](CCCNC(=N)N)C(=O)N[C@H](CCCCN)C(N)=O [ARC-3126, BPTP-Ahx-(D-Arg)6-D-Lys-NH2] (X3-[dR][dR][dR][dR][dR][dR][dK]-NH2)" tested_target="CK1δ (Homo sapiens)" recorded_metric="remaining activity at 1 µM" unit_of_measure=% value_reported=99
molecule=N=C(N)NCCC[C@@H](NC(=O)CNC(=O)[C@@H](CCCNC(=N)N)NC(=O)[C@@H](CCCNC(=N)N)NC(=O)Cn1cc(CNCc2nc3c(sc4ccc(Br)cc43)c(=O)[nH]2)nn1)C(=O)N[C@H](CCCCN)C(N)=O tested_target="CK1δ (Homo sapiens)" recorded_metric="remaining activity at 1 µM" unit_of_measure=% value_reported=88
molecule=N=C(N)NCCC[C@@H](NC(=O)CNC(=O)[C@@H](CCCNC(=N)N)NC(=O)[C@@H](CCCNC(=N)N)NC(=O)CCCCCCCNCc1nc2c(sc3cc(Br)cnc32)c(=O)[nH]1)C(=O)N[C@H](CCCCN)C(N)=O tested_target="CK1δ (Homo sapiens)" recorded_metric="remaining activity at 1 µM" unit_of_measure=% value_reported=104
molecule=N=C(N)NCCC[C@@H](NC(=O)CNC(=O)[C@@H](CCCNC(=N)N)NC(=O)[C@@H](CCCNC(=N)N)NC(=O)CCCCCCCNCc1nc2c(sc3ccc(Br)cc32)c(=O)[nH]1)C(=O)N[C@H](CCCCN)C(N)=O tested_target="CK1δ (Homo sapiens)" recorded_metric="remaining activity at 1 µM" unit_of_measure=% value_reported=99

Now consider a different molecule.
Give the measured remaining activity at 1 µM of N=C(N)NCCC[C@@H](NC(=O)CCCCCNC(=O)Cn1cnc2c(I)c(I)c(I)c(I)c21)C(=O)N[C@H](CCCNC(=N)N)C(=O)N[C@H](CCCNC(=N)N)C(=O)N[C@H](CCCNC(=N)N)C(=O)N[C@H](CCCNC(=N)N)C(=O)N[C@H](CCCNC(=N)N)C(=O)N[C@H](CCCCN)C(N)=O .
71

* * *

Biological target: PKAcα (Homo sapiens)
Construct: purchased Biaffin GmbH & Co KG (Kassel, Germany)
Assay: Binding/displacement assay with FA or TGLI readout
Conditions: TGLI or FA readout; mean ± SEM, N = 2; read-out: KD, nM (PKAcα)
Kd listing for selected compounds.
Field: numeric (nM). Do not append units.

compound="N=C(N)NCCC[C@@H](NC(=O)CNC(=O)[C@@H](CCCNC(=N)N)NC(=O)[C@@H](CCCNC(=N)N)NC(=O)CCCCCCCNCc1nc2c(sc3ccc(Br)cc32)c(=O)[nH]1)C(=O)N[C@H](CCCCN)C(N)=O [Compound 2, BBTP-Aoc-(D-Arg)2-Gly-D-Arg-D-Lys-NH2]" tested_target="PKAcα (Homo sapiens)" value_reported=853

Now consider a different compound.
Give the measured Kd of N=C(N)NCCC[C@@H](NC(=O)CNC(=O)[C@@H](CCCNC(=N)N)NC(=O)[C@@H](CCCNC(=N)N)NC(=O)CCCCCCCNCc1nc2c(sc3cc(Br)cnc32)c(=O)[nH]1)C(=O)N[C@H](CCCCN)C(N)=O [Compound 1, BPTP-Aoc-(D-Arg)2-Gly-D-Arg-D-Lys-NH2] .
2250

* * *

Residual activity, % listing for selected compounds.
Test system: p38 MAPK
Experiment: Kinase profiling (radiometric filter-binding)
Format: biochemical, human
Conditions: third of four lines (Greek letter lost), 1 µM inhibitor
Square brackets hold non-standard residues; d marks the D form. Peptide text beside a SMILES is read from it. * marks the point of attachment. X3 = O=C(CCCCCNCc1nc2c(sc3cc(Br)cnc32)c(=O)[nH]1)*
Field: numeric (%). Do not append units.

Illustrative cases are given below, each with its answer.
compound=N=C(N)NCCC[C@@H](NC(=O)CNC(=O)[C@@H](CCCNC(=N)N)NC(=O)[C@@H](CCCNC(=N)N)NC(=O)CCCCCCCNCc1nc2c(sc3cc(Br)cnc32)c(=O)[nH]1)C(=O)N[C@H](CCCCN)C(N)=O value_reported=109
compound="N=C(N)NCCC[C@@H](NC(=O)CCCCCNCc1nc2c(sc3cc(Br)cnc32)c(=O)[nH]1)C(=O)N[C@H](CCCNC(=N)N)C(=O)N[C@H](CCCNC(=N)N)C(=O)N[C@H](CCCNC(=N)N)C(=O)N[C@H](CCCNC(=N)N)C(=O)N[C@H](CCCNC(=N)N)C(=O)N[C@H](CCCCN)C(N)=O [ARC-3126, BPTP-Ahx-(D-Arg)6-D-Lys-NH2] (X3-[dR][dR][dR][dR][dR][dR][dK]-NH2)" value_reported=111
compound=N=C(N)NCCC[C@@H](NC(=O)CNC(=O)[C@@H](CCCNC(=N)N)NC(=O)[C@@H](CCCNC(=N)N)NC(=O)Cn1cc(CNCc2nc3c(sc4ccc(Br)cc43)c(=O)[nH]2)nn1)C(=O)N[C@H](CCCCN)C(N)=O value_reported=108

Now consider a different compound.
Give the measured Residual activity, % of N=C(N)NCCC[C@@H](NC(=O)CNC(=O)[C@@H](CCCNC(=N)N)NC(=O)[C@@H](CCCNC(=N)N)NC(=O)CCCCCCCNCc1nc2c(sc3ccc(Br)cc32)c(=O)[nH]1)C(=O)N[C@H](CCCCN)C(N)=O .
117

* * *

remaining activity at 1 µM listing for selected molecules.
Target: TTBK1 (Homo sapiens, UniProt Q5TCY1)
Sequence (Q5TCY1 whole entry): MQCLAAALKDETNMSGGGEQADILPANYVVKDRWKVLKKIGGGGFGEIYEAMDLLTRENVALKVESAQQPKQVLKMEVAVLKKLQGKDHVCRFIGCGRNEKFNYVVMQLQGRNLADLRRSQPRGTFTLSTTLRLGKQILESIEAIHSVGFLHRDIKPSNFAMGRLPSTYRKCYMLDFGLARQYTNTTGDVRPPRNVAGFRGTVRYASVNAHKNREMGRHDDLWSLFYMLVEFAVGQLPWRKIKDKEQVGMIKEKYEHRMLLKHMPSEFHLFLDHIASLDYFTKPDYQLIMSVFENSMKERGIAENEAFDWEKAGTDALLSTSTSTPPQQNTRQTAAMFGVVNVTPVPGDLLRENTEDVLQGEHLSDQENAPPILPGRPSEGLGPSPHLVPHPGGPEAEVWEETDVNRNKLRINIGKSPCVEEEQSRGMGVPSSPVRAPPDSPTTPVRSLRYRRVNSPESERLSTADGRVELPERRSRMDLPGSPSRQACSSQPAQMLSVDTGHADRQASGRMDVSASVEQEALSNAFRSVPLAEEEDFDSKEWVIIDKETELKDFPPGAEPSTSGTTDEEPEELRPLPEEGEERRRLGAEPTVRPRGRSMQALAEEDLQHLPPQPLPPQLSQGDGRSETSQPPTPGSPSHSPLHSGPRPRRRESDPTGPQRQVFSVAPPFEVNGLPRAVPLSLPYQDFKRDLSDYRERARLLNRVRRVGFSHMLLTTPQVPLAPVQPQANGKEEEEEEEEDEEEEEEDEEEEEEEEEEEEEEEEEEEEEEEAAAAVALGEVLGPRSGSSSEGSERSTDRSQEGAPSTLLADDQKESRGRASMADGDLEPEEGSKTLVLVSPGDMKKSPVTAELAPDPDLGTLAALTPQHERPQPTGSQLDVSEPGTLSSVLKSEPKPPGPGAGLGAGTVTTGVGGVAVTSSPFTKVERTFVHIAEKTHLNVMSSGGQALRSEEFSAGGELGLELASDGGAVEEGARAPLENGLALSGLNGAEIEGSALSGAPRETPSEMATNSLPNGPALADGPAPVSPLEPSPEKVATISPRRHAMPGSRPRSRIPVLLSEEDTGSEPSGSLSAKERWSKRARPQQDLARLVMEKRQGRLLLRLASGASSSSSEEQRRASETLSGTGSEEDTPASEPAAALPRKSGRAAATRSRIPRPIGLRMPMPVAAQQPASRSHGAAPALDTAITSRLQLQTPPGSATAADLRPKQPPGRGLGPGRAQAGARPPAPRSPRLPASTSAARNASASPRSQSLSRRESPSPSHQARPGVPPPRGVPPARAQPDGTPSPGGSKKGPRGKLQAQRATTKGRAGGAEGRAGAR
Assay: Kinase profiling (radiometric filter-binding)
Type: biochemical
Details: TTBK1, 1 µM inhibitor; read-out: Residual activity, %
Square brackets hold non-standard residues; d marks the D form. Peptide text beside a SMILES is read from it. * marks the point of attachment. X3 = O=C(CCCCCNCc1nc2c(sc3cc(Br)cnc32)c(=O)[nH]1)*
Field: numeric (%). Do not append units.

Illustrative cases are given below, each with its answer.
molecule="N=C(N)NCCC[C@@H](NC(=O)CCCCCNCc1nc2c(sc3cc(Br)cnc32)c(=O)[nH]1)C(=O)N[C@H](CCCNC(=N)N)C(=O)N[C@H](CCCNC(=N)N)C(=O)N[C@H](CCCNC(=N)N)C(=O)N[C@H](CCCNC(=N)N)C(=O)N[C@H](CCCNC(=N)N)C(=O)N[C@H](CCCCN)C(N)=O [ARC-3126, BPTP-Ahx-(D-Arg)6-D-Lys-NH2] (X3-[dR][dR][dR][dR][dR][dR][dK]-NH2)" tested_target="TTBK1 (Homo sapiens, UniProt Q5TCY1)" recorded_metric="remaining activity at 1 µM" unit_of_measure=% value_reported=103
molecule=N=C(N)NCCC[C@@H](NC(=O)CNC(=O)[C@@H](CCCNC(=N)N)NC(=O)[C@@H](CCCNC(=N)N)NC(=O)Cn1cc(CNCc2nc3c(sc4ccc(Br)cc43)c(=O)[nH]2)nn1)C(=O)N[C@H](CCCCN)C(N)=O tested_target="TTBK1 (Homo sapiens, UniProt Q5TCY1)" recorded_metric="remaining activity at 1 µM" unit_of_measure=% value_reported=99
molecule=N=C(N)NCCC[C@@H](NC(=O)CCCCCNC(=O)Cn1cnc2c(I)c(I)c(I)c(I)c21)C(=O)N[C@H](CCCNC(=N)N)C(=O)N[C@H](CCCNC(=N)N)C(=O)N[C@H](CCCNC(=N)N)C(=O)N[C@H](CCCNC(=N)N)C(=O)N[C@H](CCCNC(=N)N)C(=O)N[C@H](CCCCN)C(N)=O tested_target="TTBK1 (Homo sapiens, UniProt Q5TCY1)" recorded_metric="remaining activity at 1 µM" unit_of_measure=% value_reported=123
molecule=N=C(N)NCCC[C@@H](NC(=O)CNC(=O)[C@@H](CCCNC(=N)N)NC(=O)[C@@H](CCCNC(=N)N)NC(=O)CCCCCCCNCc1nc2c(sc3cc(Br)cnc32)c(=O)[nH]1)C(=O)N[C@H](CCCCN)C(N)=O tested_target="TTBK1 (Homo sapiens, UniProt Q5TCY1)" recorded_metric="remaining activity at 1 µM" unit_of_measure=% value_reported=116

Now consider a different molecule.
Give the measured remaining activity at 1 µM of N=C(N)NCCC[C@@H](NC(=O)CNC(=O)[C@@H](CCCNC(=N)N)NC(=O)[C@@H](CCCNC(=N)N)NC(=O)CCCCCCCNCc1nc2c(sc3ccc(Br)cc32)c(=O)[nH]1)C(=O)N[C@H](CCCCN)C(N)=O .
97
